The measurements presented in this section are drawn from the supplement of paper PMC11246515.

- METHOD: total protein half-life in vivo (active degradation + dilution); higher = more stable protein
- SETUP_CONDITIONS: E. coli NCM3722 delta-smpB; growth: N-lim chemostat; doubling time 6 h
QUANTITY: total protein half-life in vivo (h)
Reply with just the number (in h).

Query block: # lookup: total protein half-life in vivo of `MGKAVIAIHGGAGAISRAQMSLQQELRYIEALSAIVETGQKMLEAGESALDVVTEAVRLLEECPLFNAGIGAVFTRDETHELDACVMDGNTLKAGAVAGVSHLRNPVLAARLVMEQSPHVMMIGEGAENFAFARGMERVSPEIFSTSLRYEQLLAARKEGATVLDHSGAPLDEKQKMGTVGAVALDLDGNLAAATSTGGMTNKLPGRVGDSPLVGAGCYANNASVAVSCTGTGEVFIRALAAYDIAALMDYGGLSLAEACERVVMEKLPALGGSGGLIAIDHEGNVALPFNTEGMYRAWGYAGDTPTTGIYREKGDTVATQ`
Result block: 3.16

###

Below, each entry is listed alongside its reported total protein half-life in vivo.
- METHOD: total protein half-life in vivo (active degradation + dilution); higher = more stable protein
- SETUP_CONDITIONS: E. coli NCM3722 delta-clpP; growth: N-lim chemostat; doubling time 6 h

Query block: # lookup: total protein half-life in vivo of MTLEWWFAYLLTSIILSLSPGSGAINTMTTSLNHGYRGAVASIAGLQTGLAIHIVLVGVGLGTLFSRSVIAFEVLKWAGAAYLIWLGIQQWRAAGAIDLKSLASTQSRRHLFQRAVFVNLTNPKSIVFLAALFPQFIMPQQPQLMQYIVLGVTTIVVDIIVMIGYATLAQRIALWIKGPKQMKALNKIFGSLFMLVGALLASARHA [P0AG34]
Result block: 2.02 h

Query block: # lookup: total protein half-life in vivo of `MMRIALFLLTNLAVMVVFGLVLSLTGIQSSSVQGLMIMALLFGFGGSFVSLLMSKWMALRSVGGEVIEQPRNERERWLVNTVATQARQAGIAMPQVAIYHAPDINAFATGARRDASLVAVSTGLLQNMSPDEAEAVIAHEISHIANGDMVTMTLIQGVVNTFVIFISRILAQLAAGFMGGNRDEGEESNGNPLIYFAVATVLELVFGILASIITMWFSRHREFHADAGSAKLVGREKMIAALQRLKTSYEPQEATSMMALCINGKSKSLSELFMTHPPLDKRIEALRTGEYLK`
Result block: 5.6 h

Further cases:
Query block: # lookup: total protein half-life in vivo of `MSKLFWAMLSFITRLPVPRRWSQGLDFEHYSRGIITFPLIGLLLGAISGLVFMVLQAWCGAPLAALFSVLVLVLMTGGFHLDGLADTCDGVFSARSRDRMLEIMRDSRLGTHGGLALIFVVLAKILVLSELALRGESILASLAAACAVSRGTAALLMYRHRYAREEGLGNVFIGKIDGRQTCVTLGLAAIFAAVLLPGMHGVAAMVVTMVAIFILGQLLKRTLGGQTGDTLGAAIELGELVFLLALL`
Result block: 6.7 h

Query block: # lookup: total protein half-life in vivo of `MFPFRRNVLAFAALLALSSPVLAGKLAIVIDDFGYRPHNENQVLAMPSAISVAVLPDSPHAREMATKAHNSGHEVLIHLPMAPLSKQPLEKNTLRPEMSSDEIERIIRSAVNNVPYAVGINNHMGSKMTSNLFGMQKVMQALERYNLYFLDSVTIGNTQAMRAAQGTGVKVIKRKVFLDDSQNEADIRVQFNRAIDLARRNGSTIAIGHPHPATVRVLQQMVYNLPPDITLVKASSLLNEPQVDTSTPPKNAVPDAPRNPFRGVKLCKPKKPIEPVYANRFFEVLSESISQSTLIVYFQHQWQGWGKQPEAAKFNASAN`
Result block: 6.23 h
